Cited source for all entries: the supplement of paper PMC6555819

test system: RARb homodimer (NR concentration 270 nM); experiment: PBM binding z-score (relative to random genomic background probes); higher = stronger binding; sequences stand for … in GC…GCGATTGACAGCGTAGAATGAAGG
Recorded PBM binding z-score values for a group of sequences are listed next.
measured-parameter: PBM binding z-score

sequence-record	meas-value
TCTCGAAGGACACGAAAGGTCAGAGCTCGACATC	4.81
ACGATTAGTTGACTTAGGGCAACCGATACGACGC	0.941
CCTACTGGGCCACCAAAGGTCATTGATTCAGTGA	4.49
CGTCCCAGGTCAGAGAGGTCAGTGAATGCCGAGT	4.89
TCATATAGGTAAAGGTGAAAGCCGAACGATATGA	1.16
CCGACTGGGGCAGAAAGGTTACCATCCCATCCGG	2.3
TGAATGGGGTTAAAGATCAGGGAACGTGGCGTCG	1.49
CCTAGTTGGTCAGAAGGTCACACACCGGATATGA	4.46
AGAACGAGGGTAATGAGTTGATAGCACGGGTGGC	-0.134
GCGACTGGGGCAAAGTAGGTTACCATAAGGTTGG	1.42
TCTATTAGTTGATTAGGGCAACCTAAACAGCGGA	0.947
GATACAGGGTCAGCTAGAGGCCACAGTATGGAAA	3.61
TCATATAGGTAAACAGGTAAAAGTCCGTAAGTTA	0.493
CCTAGCAGTCCAATCTGGGTCACTCAAGGCTTGA	2.02
ACTATTAGTTGACTTAGTGCAACCGATACGACGC	0.207
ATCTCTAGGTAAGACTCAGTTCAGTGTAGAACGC	0.758
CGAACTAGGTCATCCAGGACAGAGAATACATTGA	2.81
CGTCAAAGTTCAAGGTGACGTAACAGAAAGCAGC	4.19
CCTCGGAGGACAGATGGTCAGAGCTGTCCGCTTT	0.0769
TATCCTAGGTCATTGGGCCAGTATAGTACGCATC	3.29
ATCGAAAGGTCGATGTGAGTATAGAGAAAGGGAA	1.41
CCGACTGGGGCAAAGTTACCATAACGCACAGCCA	-0.231
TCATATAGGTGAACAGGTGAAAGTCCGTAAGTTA	1.38
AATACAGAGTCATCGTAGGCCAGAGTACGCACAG	0.0687
CGAACTAGGTCAGAACAGGTCAGTGAAGGATGAT	3.88
CCGACTGGGGCCGAAAGGTTACCATACCATCCGG	2.41
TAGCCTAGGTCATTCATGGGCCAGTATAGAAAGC	2.52
TCTTGTAAATCAGCAGGTTAAGAAAGCTGGCCAA	-0.0241
TCTAGTTGGTCACGCAGGTCACACACGACGGGTA	3.63
TGAATGAGGTTAAAGCTCAGGGAACGTGGCGTCG	0.437
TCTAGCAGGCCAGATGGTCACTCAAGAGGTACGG	0.18
TCTGCTAGGTCAGTTGGTCAGCTATCGAGCTGCC	2.69
GCTATTAGTTGAAACGGCAACCGAATGATTCTCG	-0.548
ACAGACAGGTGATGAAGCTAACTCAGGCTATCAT	-0.226
CCTAGCTGGCCAATCTGGGTCACTCAAGGCTTGA	1.72
TCTGCTAGGTCAACGATGGGCAGCTAATCTGCTA	2.74
ATCTCTAGGTAAAGTTCAGTGACAGATCGATAGA	2.63
ACACGGAGGACAAAGGTCAGAGCTACGCCAGTGA	4.59
ACAGACAGGTGAGTGAAGGCAACTCAGCTGGACG	-0.0202
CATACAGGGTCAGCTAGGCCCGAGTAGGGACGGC	3.14
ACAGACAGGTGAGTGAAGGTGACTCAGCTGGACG	0.821
CGTCAAAGTTCAACTAAGGTAATGTAAAGCACGC	4.29
CCTAGTTGGTCAAGGTCACACTCGCTATAGGTAC	4.05
CCGACTGGGGCAAGGTTACCACAACGCACAGCCA	1.53
ATATGTAGGTTAAGGATCATTCAGGTTGGTTCGC	0.849
